assay: yeast display, Sf9 membrane polyspecificity reagent, FACS + sequencing; frameworks hold sequencing errors
measure-name: polyreactivity (PSR sort gate)

Please review the entries below; each comes with its answer.
residue-string	polyreactivity (PSR sort gate)
QVQLVESGGGLVQAGGSLRLSCAASGRNFGSYAMGWYRQAPGKERELVAAITSGGSTYYADSVKGRFTISRDNAKNTVYLQMNSLKPEDTAVYYCAARQVRTSKLHMGYWGQGTQVTVSS	low polyreactivity
QVQLVESGGGLVQAGGSLRLSCAASGRIFGQYAMAWYRHAPGKERELVAAITQRGGSTYYADSVKGRFTISRDNAKNTVYLQMNSLKPEDTAGYYCNKRYRFTGIRDPFDYWGQGTQVTVSS	low polyreactivity
QVQLVESGGGFVQAGGSLRLSCAASGFSFGYSAMGWYRQAPGKERELVAAINNADSTYYADSVKGRFPISRDNAKNTVYLQMNSLKPEDTAVYYCAAVVDYGWWLAYDYWGQGTQVTVSS	high polyreactivity
QVQLVESGGGLVQAGGSLRLSCAASGGTFYAYAMGSYRQAPGKERELVAAITNSGGSTYYADSVKGRFTISRDNAKNNVYLQMHSLKPEDTAVYYCARRRSYRDNYWGQGTQVTVSS	high polyreactivity

Now examine the next entry.
INPUT: Form field: reported polyreactivity (PSR sort gate) of QVQLVESGGGLVQAGGTLRLSCDPSGRTFYYYAMGWYRQAPGKERELVATIRSTGSTNYADSVKGRFTISRDNAKNTVYLKMNSLKPEDTAVYYCAAKPLQGVRRVEYWGQGTQVTVSS
OUTPUT: high polyreactivity

====

assay: yeast display, Sf9 membrane polyspecificity reagent, FACS + sequencing; frameworks hold sequencing errors
measure-name: polyreactivity (PSR sort gate)

residue-string	polyreactivity (PSR sort gate)
QVQLVESGGGLVQAGGSLRLSCAASGRTFNRYAMGWYRQAPGKERELVAVITSDGRTNYADSVKGRFTISRDNAKNTVYLQMNSLKPEDSAVYYCNKRSALSFVYDFDYWGQGTQVTVSS	low polyreactivity
QVQLVESGGGLVQAGGSLRLSCAASGRIFGYNTMGWYRQPPGKERELVAAITSTGRTYYADSVKGRFTISRDNAKNTVYLQMNSLKPEDTAVYYCNARSSYGWPKYYYWGQGTQVTVSS	high polyreactivity
QVQLVESGGGLVQAGGSLRLSCAASGSTIRAYGMGWYRQAPGKERELVAAISYSGDSTYYADSVKGRFTISRDNAKNTVYLQMNSLKPEDTAVYYCDADYSYRHYEYDYWGQGTQVTVSS	low polyreactivity
QVQLVESGGGLVQAGGSLRLSCAASGSTFYRYAMGWYRQAPGKERELVADITRSGDSTYYADSVKGRFTISRDNAKNTVYLQMNSLKPEDTAVYYCAREYPTIRYRLGYWGQGTQVTVSS	low polyreactivity
QVQIVESGGGLVQAGGSLRLSCAASGSTFLTNTMGWYRQAPGKERELVAAITLRGGRTYYADSVKGRFTISRDNAKNTVYLQMNSLRPEDTAVYYCNARNYYYPSDRDYWGQGTQVTVSS	low polyreactivity

Now for the sequence whose polyreactivity (PSR sort gate) we want.
INPUT: Data request, read-out polyreactivity (PSR sort gate), for QVQLVESGGGLVQAGGSLRLSCAASGRIFRVYAMGWYRQAPGKERELVAAISWSGGRTYYADSVKGRFTISRDNAKNTVYLQMNSLKPEDTAVYYCAAERGGPTYYSGGDYDYWGQGTQVTVSS
OUTPUT: high polyreactivity

Attribution: the nanobody polyreactivity screen of Harvey et al. (2022)
